SYSTEM: Metallo-beta-lactamase type 2 (Bacteria, UniProt C7C422)
Sequence (C7C422 whole entry): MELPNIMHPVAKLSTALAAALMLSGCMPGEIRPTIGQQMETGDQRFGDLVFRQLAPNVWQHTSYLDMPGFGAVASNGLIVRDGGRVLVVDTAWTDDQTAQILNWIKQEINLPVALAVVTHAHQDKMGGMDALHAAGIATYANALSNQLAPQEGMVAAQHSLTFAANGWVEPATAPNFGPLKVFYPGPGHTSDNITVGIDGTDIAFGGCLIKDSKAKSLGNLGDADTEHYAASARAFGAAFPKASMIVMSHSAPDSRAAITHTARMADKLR
ASSAY_EXPLANATION: Binding affinity to N-terminal NDM-1 (unknown origin) extracted from Escherichia coli BL21 assessed as inhibition constant
REPORTED_ENDPOINT: Ki (nM)

(A) O=C(O)c1ncsc1NS(=O)(=O)c1cccnc1
(B) N=C(N)NNC(=O)Nc1c(F)cc(S(=O)(=O)Nc2scnc2C(=O)O)cc1F
Q. Given the two records A and B , choose the one whose Ki value is lower. To answer, give the label that identifies your chosen option.
A. B
(B: 40 nM, A: 800 nM)

----------
SYSTEM: Metallo-beta-lactamase type 2 (Bacteria)
ASSAY_EXPLANATION: Inhibition of Metallo-beta-lactamase NDM-1 (unknown origin)
pIC50: −log10 of the molar value.
REPORTED_ENDPOINT: pIC50

(a) C[C@H](CS)C(=O)N1CCC(C(=O)O)CC1
(b) O=C(O)[C@H]1CCCN1C(=O)C(CS)CS
(c) C[C@H](CS)C(=O)N1CCC(CC(N)=O)CC1
Q. I'd appreciate it if you sorted the entries above by their pIC50, lowest to highest. Reply with the item labels sorted in the order that was asked for.
A. b, c, a

----------
SYSTEM: Metallo-beta-lactamase type 2 (Bacteria, UniProt C7C422)
ASSAY_EXPLANATION: Inhibition of Metallo-beta-lactamase NDM-1 (unknown origin)
REPORTED_ENDPOINT: IC50 (µM)

O=C(O)CN1CCN(CC(=O)O)CCN(CC(=O)O)CCN(CC(=O)O)CC1    1.34
O=C(O)CN1CCN(CC(=O)O)CCN(CC(=O)O)CC1    0.28
C[C@H](CS)C(=O)N1CCC(C(N)=O)CC1    11.1
N[C@H](CN[C@H](CN[C@@H](CC(=O)O)C(=O)O)C(=O)O)C(=O)O    4
O=C(O)CNC(=O)C(CS)Cc1ccccc1 (configuration not stated)    1.8

(a) C[C@H](CS)C(=O)N1CCCCC[C@@H]1C(=O)O
(b) C[C@H](CS)C(=O)N1CCCC[C@@H]1C(=O)O
(c) C[C@H](CS)C(=O)N1CCc2ccccc2[C@@H]1C(=O)O
Q. Kindly order the items shown according to IC50, from the highest value down. Answer by listing the labels in the order asked for.
A. a, b, c
(a: 20.4 µM, b: 6.9 µM, c: 4.6 µM)

----------
SYSTEM: Metallo-beta-lactamase type 2 (Bacteria)
ASSAY_EXPLANATION: Inhibition of N-terminal NDM-1 (unknown origin) extracted from Escherichia coli BL21
STATED_CONDITIONS: read-out: IC50
REPORTED_ENDPOINT: IC50 (nM)

(P) Nc1cccc(-c2cc(C(=O)O)nc(C(=O)O)c2)c1
(Q) COc1ccc(Cl)cc1-c1c(C(=O)O)[nH]c2c1CCc1ccccc1-2
Q. Lab log: flag the item ( P or Q ) with the smaller IC50 figure. In your reply, give the label of the chosen option.
A. Q

----------
SYSTEM: Metallo-beta-lactamase type 2 (Bacteria, UniProt C7C422)
ASSAY_EXPLANATION: Inhibition of Metallo-beta-lactamase NDM-1 (unknown origin)
REPORTED_ENDPOINT: IC50 (µM)

OCC(S)CS (centres undefined)    1.3

(P) C[C@H](CS)C(=O)N1CCC(CC(=O)O)CC1
(Q) C[C@H](CS)C(=O)N1CCC[C@H](C(=O)O)C1
Q. Pick one: P or Q . Which has the bigger IC50 number? Record your answer as the label of the chosen record.
A. Q
